- assay.remarks: Rat pharmacokinetics, intravenous bolus and oral gavage
- Format: in vivo, male Sprague Dawley rats
- test.context: plasma, PO 10 mg/kg, solution, male Sprague Dawley rats, mean±SD n=3
assay.readout: AUC(0-inf) (ng·h/mL)
Answers are plain numbers, in ng·h/mL.

The compound COc1cc2c(cc1N1CCOCC1)CC(Cc1cccc(OC(F)(F)F)c1)C2=O (stereo not shown) showed AUC(0-inf) equal to 558

====

- target.desc: RORγt (Homo sapiens, UniProt P51449)
- Construct: host or cells: IL-17A Prom/LUCPorter HEK 293 cell line (IMGENEX, IML-301)
- Sequence (P51449 1-497 isoform P51449-2): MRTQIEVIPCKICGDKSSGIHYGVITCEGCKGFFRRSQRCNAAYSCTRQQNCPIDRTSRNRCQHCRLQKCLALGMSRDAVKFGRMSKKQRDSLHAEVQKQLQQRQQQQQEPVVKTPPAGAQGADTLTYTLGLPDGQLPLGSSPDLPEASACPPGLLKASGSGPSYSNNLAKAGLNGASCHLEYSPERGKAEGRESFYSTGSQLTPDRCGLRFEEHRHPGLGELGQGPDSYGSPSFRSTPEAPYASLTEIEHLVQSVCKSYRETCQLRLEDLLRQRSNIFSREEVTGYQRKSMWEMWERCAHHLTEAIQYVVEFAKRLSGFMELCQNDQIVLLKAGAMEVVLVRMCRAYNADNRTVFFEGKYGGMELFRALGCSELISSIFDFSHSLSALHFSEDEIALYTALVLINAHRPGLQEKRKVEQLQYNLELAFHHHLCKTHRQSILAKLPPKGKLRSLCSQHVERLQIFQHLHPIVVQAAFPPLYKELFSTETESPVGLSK
- assay.remarks: RORγt-activated IL-17A Prom/LUCPorter HEK 293 cells luciferase reporter assay
- Type: cell-based
- test.context: IL-17A Prom/LUCPorter HEK 293 cells transfected with RORγt, 16 h; read-out: RORγt Cell Specific
pIC50: −log10 of the molar value.
assay.readout: pIC50

Some entries whose results are on file:
| compound | pIC50 |
| --- | --- |
| COc1cc2c(cc1N1CCOCC1)C/C(=C\c1cc(Br)cc(OC(F)(F)F)c1)C2=O | < 5.00 |
| CCS(=O)(=O)Oc1cc2c(cc1OC)CC(Cc1ncccc1C(F)(F)F)C2=O (centres unmarked) | > 6.30 |
| COc1ccc2c(c1)CC(Cc1ccc(SC(F)(F)F)cc1)C2=O (centres unmarked) | < 6.00 |
| COc1cc2c(cc1-c1ccccc1OC(F)(F)F)CC(Cc1ncccc1C(F)(F)F)C2=O (centres unmarked) | < 6.00 |
| COc1cc2c(cc1N1CCNCC1)CC(Cc1ncccc1C(F)(F)F)C2=O (centres unmarked) [compound 164] | < 6.00 |

Give pIC50 for each of the items listed below.
1. COc1cc2c(cc1N1CCN(C)CC1)CC(Cc1cccc(C(F)(F)F)c1)C2=O (centres unmarked) [compound 103]
2. COc1cc2c(cc1N1CCN(CCO)CC1)CC(Cc1ncccc1C(F)(F)F)C2=O (centres unmarked)
3. COc1cc2c(c(N3CCN(C)CC3)c1OC)CC(Cc1ccc(SC(F)(F)F)cc1)C2=O (centres unmarked)

Result string:
< 6.00
> 6.30
< 6.00

====

- target.desc: RORγt (Homo sapiens)
- Construct: host or cells: IL-17A Prom/LUCPorter HEK 293 cell line (IMGENEX, IML-301)
- assay.remarks: RORγt-activated IL-17A Prom/LUCPorter HEK 293 cells luciferase reporter assay
- Type: cell-based
- test.context: RORγt Cell Specific, IL-17A Prom/LUCPorter HEK 293 cells transfected with RORγt, 16 h
assay.readout: IC50

The compound COc1cc2c(cc1N1CCOCC1)CC(Cc1cccc(C(F)(F)F)c1)C2=O (stereo not shown) [compound 37] showed IC50 equal to < 500 nM

====

- target.desc: RORγ-LBD (RORγt) (Homo sapiens, UniProt P51449)
- Construct: the 6-His-(GST) RORγ-LBD was used which expressed and purified from baculovirus infected Sf-21 insect cells; made in house; host or cells: baculovirus-infected Sf-21 insect cells
- assay.remarks: TR-FRET RORγt Binding Assay
- test.context: 6-His(GST)RORγ-LBD, SRC1_2 peptide, read-out: RORγt Binding
assay.readout: IC50

Give IC50 for each of the items listed below.
1. COc1cc2c(cc1N1CCOCC1)CC(Cc1cc(C(F)(F)F)ccc1NC(=O)C(C)(C)C)C2=O (centres unmarked) [compound 65]
2. COc1cc2c(cc1N1CCOCC1)CC(Cc1cncc(C(O)(C(F)(F)F)C(F)(F)F)c1)C2=O (centres unmarked) [compound 264]
3. COc1ccc2c(c1)CC(Cc1ncccc1C(F)(F)F)C2=O (centres unmarked) [compound 184]
4. COc1ccc2c(c1OC)CC(Cc1ncccc1C(F)(F)F)C2=O (centres unmarked) [compound 169]
5. COc1cc2c(cc1N1CCOCC1)CC(Cc1sc(N3CCOCC3)nc1Cl)C2=O (centres unmarked) [compound 47]
6. COc1cc2c(cc1N1CCOCC1)CC(Cc1ccc(Cl)cc1C(F)(F)F)C2=O (centres unmarked) [compound 56]
7. COc1cc2c(cc1N1CCNCC1)CC(Cc1ncccc1C(F)(F)F)C2=O (centres unmarked) [compound 164]

Result string:
["> 10000 nM", "< 500 nM", "< 500 nM", "> 1000 nM", "> 1000 nM", "> 1000 nM", "< 500 nM"]

The compound COc1cc2c(cc1N1CCOCC1)CC(Cc1cc(Cl)ccc1C(F)(F)F)C2=O (centres unmarked) [compound 53] showed IC50 equal to > 1000 nM

====

- assay.remarks: Rat pharmacokinetics, intravenous bolus and oral gavage
- Type: in vivo, male Sprague Dawley rats
- test.context: plasma, IV 2 mg/kg, solution, male Sprague Dawley rats, mean±SD n=3
assay.readout: half-life (h)
Answers are plain numbers, in h.

The compound COc1cc2c(cc1N1CCOCC1)CC(Cc1cccc(OC(F)(F)F)c1)C2=O (stereo not shown) showed half-life equal to 6.63

====

Give measured IC50 for each item. Keep answers brief.
- target.desc: RORγ-LBD (RORγt) (Homo sapiens, UniProt P51449)
- Construct: the 6-His-(GST) RORγ-LBD was used which expressed and purified from baculovirus infected Sf-21 insect cells; made in house; host or cells: baculovirus-infected Sf-21 insect cells
- Sequence (P51449 269-508 limits assumed): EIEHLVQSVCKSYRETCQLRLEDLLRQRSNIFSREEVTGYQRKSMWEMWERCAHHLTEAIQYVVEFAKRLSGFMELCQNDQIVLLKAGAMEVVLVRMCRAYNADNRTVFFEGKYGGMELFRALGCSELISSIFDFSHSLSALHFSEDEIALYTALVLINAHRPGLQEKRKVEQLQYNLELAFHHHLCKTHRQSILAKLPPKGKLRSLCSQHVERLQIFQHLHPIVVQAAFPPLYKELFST
- assay.remarks: TR-FRET RORγt Binding Assay
- test.context: 6-His(GST)RORγ-LBD, SRC1_2 peptide, read-out: RORγt Binding

| compound | IC50 |
| --- | --- |
| COc1cc2c(cc1N1CCOCC1)CC(CC1CCN(Cc3ccccc3)CC1)C2=O (centres unmarked) | < 0.5 µM |
| COc1cc2c(cc1N1CCOCC1)CC(Cc1cc(C(F)(F)F)cnc1Cl)C2=O (centres unmarked) | > 1 µM |
| COc1cc2c(cc1N1CCN(C)CC1)CC(Cc1cccc(C(F)(F)F)c1)C2=O (centres unmarked) [compound 103] | < 0.5 µM |

Give IC50 for each of the items listed below.
1. COc1cc2c(cc1N1CCN(C)CC1)CC(Cc1cc(C(F)(F)F)ccc1Cl)C2=O (centres unmarked)
2. COc1cc2c(cc1N1CCOCC1)CC(Cc1cc(Br)cc(OC(F)(F)F)c1)C2=O (centres unmarked)
3. COc1cc2c(cc1N1CCOCC1)CC(Cc1ccc(F)cc1F)C2=O (centres unmarked)
4. COc1cc2c(cc1N1CCOCC1)CC(Cc1ccc(C(F)(F)F)c(Cl)c1)C2=O (centres unmarked)
5. COc1cc2c(cc1N1CCOCC1)CC(Cc1ccc(SC(F)(F)F)cc1)C2=O (centres unmarked)

Result string:
1: > 1 µM; 2: < 0.5 µM; 3: > 1 µM; 4: > 1 µM; 5: > 10 µM

====

- target.desc: RORγ-LBD (RORγt) (Homo sapiens, UniProt P51449)
- Construct: the 6-His-(GST) RORγ-LBD was used which expressed and purified from baculovirus infected Sf-21 insect cells; made in house; host or cells: baculovirus-infected Sf-21 insect cells
- assay.remarks: TR-FRET RORγt Binding Assay
- test.context: 6-His(GST)RORγ-LBD, SRC1_2 peptide, read-out: RORγt Binding
- Method: TR-FRET RORγt Binding Assay: RORγ-LBD contains a 6-His and GST tag peptide from SRC1-2 an aminoterminal biotinyl-[…] was employed and the 6-His-(GST) RORγ-LBD was used which expressed and purified from baculovirus infected Sf-21 insect cells from Invitrogen and purified using glutathione sepharose. […] Fluorescence at wavelength 340 nm was read in each well of […] using an Envision fluorescence reader in Time Resolved mode after overnight incubation at 4° C.
Give measured IC50 for each item. Keep answers brief.

Some entries whose results are on file:
| compound | target.desc | IC50 |
| --- | --- | --- |
| CCS(=O)(=O)Oc1ccc2c(c1)CC(Cc1ccc(SC(F)(F)F)cc1)C2=O (centres unmarked) | RORγ-LBD (RORγt) (Homo sapiens, UniProt P51449) | < 0.5 µM |
| COc1cc2c(cc1N1CCOCC1)CC(Cc1ccc(Cl)c(C(F)(F)F)c1)C2=O (centres unmarked) | RORγ-LBD (RORγt) (Homo sapiens, UniProt P51449) | > 1 µM |
| COc1cc2c(cc1N1CCC(F)CC1)CC(Cc1ncccc1C(F)(F)F)C2=O (centres unmarked) | RORγ-LBD (RORγt) (Homo sapiens, UniProt P51449) | > 1 µM |
| COc1cc2c(cc1N1CCNCC1)CC(Cc1ccc(SC(F)(F)F)cc1)C2=O (centres unmarked) | RORγ-LBD (RORγt) (Homo sapiens, UniProt P51449) | < 0.5 µM |
| COc1cc2c(cc1Cl)CC(Cc1ccc(SC(F)(F)F)cc1)C2=O (centres unmarked) | RORγ-LBD (RORγt) (Homo sapiens, UniProt P51449) | > 1 µM |

Give IC50 for each of the items listed below.
1. COc1cc2c(cc1N1CCN(CCO)CC1)CC(Cc1ncccc1C(F)(F)F)C2=O (centres unmarked)
2. O=C1c2ccc(O)cc2CC1Cc1ccc(SC(F)(F)F)cc1 (centres unmarked)
3. COc1cc2c(cc1N1CCOCC1)CC(Cc1c(Cl)cccc1C(F)(F)F)C2=O (centres unmarked)

Result string:
1: < 0.5 µM; 2: < 0.5 µM; 3: > 1 µM
